Tested on: TO-N3-2 (biotin conjugate)
Experiment: pull-down binding Z-score (relative to library population); higher = stronger binding
Settings: RNA library: Library-2
Rule: pull-down binding Z-score of -0.2 or more gives Fulfilled; anything lower gives Not fulfilled.

Use the examples below as a reference point.
# biosequence, tested-system, category-label
records = [
    ("CACACACAAUCACCAUGUG [hsa-mir-3118-1]", "TO-N3-2 (biotin conjugate)", "Not fulfilled"),
    ("CUCUUGAGUGCAUUAAAGACCUUCUAGCACGUGCUGGUAAAGCUUCAUGCACUUUGUCCGAACAACUGGACUUUAUUGACACUAAGAG [SHAPE_invitro_SARS-CoV-2_Multi_69_ComplexLevel_1]", "TO-N3-2 (biotin conjugate)", "Fulfilled"),
    ("CUUUUGGAAAAUAGAAAAG [hsa-mir-3184]", "TO-N3-2 (biotin conjugate)", "Fulfilled"),
    ("GCUCAGGAUGGUAAUGCUGCUAUCAGC", "TO-N3-2 (biotin conjugate)", "Fulfilled"),
    ("GCGGUUUUUGCUAUUGGUUUUAAUGGC [hsa-mir-548au]", "TO-N3-2 (biotin conjugate)", "Fulfilled"),
    ("GAUUAUUACAGAUC [DMSMaPseq_invitro_SARS-CoV-2_Motif_169]", "TO-N3-2 (biotin conjugate)", "Not fulfilled"),
    ("CAUCACUGGAAUGUUCCAGCGACU [hsa-mir-3654]", "TO-N3-2 (biotin conjugate)", "Fulfilled"),
    ("GAGUAUUUUAAUACUGGCAUACUC [hsa-mir-1263]", "TO-N3-2 (biotin conjugate)", "Not fulfilled"),
    ("GUAUGAGUGUAUUGGUCUUCAUAA [hsa-mir-9-2]", "TO-N3-2 (biotin conjugate)", "Fulfilled"),
    ("CAGAUACUUUUUAAAAUUUGUUUGAGUUGAGGCAGAUUAAAUAUCUG [hsa-mir-4742]", "TO-N3-2 (biotin conjugate)", "Not fulfilled"),
]

input: Check the entry GACCAAAAGUCAACAUUAAACAACAAAUCUUGGCC [hsa-mir-5708] : does pull-down binding Z-score equal or exceed -0.2?
output: Not fulfilled

input: Check the entry UGUCGUAGAAAGUAAUGGCA [hsa-mir-548l] : does pull-down binding Z-score equal or exceed -0.2?
output: Not fulfilled

###

System: TO-N3 (biotin conjugate)
Experiment: pull-down binding Z-score (relative to library population); higher = stronger binding
Conditions: RNA library: Library-2
Recorded pull-down binding Z-score by entry
Reply briefly: the number, and no unit.

Worked cases, pull-down binding Z-score given:
# biosequence, pull-down binding Z-score
rows = [
    ("GGAGAGGAUCCACCUGUCCUGUCC [hsa-mir-6165]", 0.374),
    ("GGCUGGUGGCACUACUGAAAUGCUAGCGAAAGCUUUGAGAAAAGUGCCAACAGAC", 0.418),
]

input: # query: pull-down binding Z-score of entry CAAGGACCUGCCUAAAGAAAUCACUGUUGCUACAUCACGAACGCUUUCUUAUUACAAAUUGGGAGCUUCGCAGCGUGUAGCAGGUGACUCAGGUUUUG [DMSMaPseq_invitro_SARS-CoV-2_Motif_486]
output: -0.158

###

System: TO-3-N3 (biotin conjugate)
Assay: pull-down binding Z-score (relative to library population); higher = stronger binding
Details: RNA library: Library-2
Rule: pull-down binding Z-score of -0.4 or more gives Yes; anything lower gives No.

Use the examples below as a reference point.
# biosequence, tested-system, category-label
measured = [
    ("AUUGGUGCAGGUAUAUGCGCUAGU", "TO-3-N3 (biotin conjugate)", "No"),
    ("GGGAGCUAUAAACAGCAGUCUCCC [IAV_invivo_HA_4_Motif_12+IAV_invivo_HA_4_Motif_12]", "TO-3-N3 (biotin conjugate)", "Yes"),
    ("AUGGCAUUUAAGGAUUGCUAU [hsa-mir-4477a]", "TO-3-N3 (biotin conjugate)", "No"),
    ("GCGCUGCCAGAAACUGGCAAAAGCGC [bulge-AAA]", "TO-3-N3 (biotin conjugate)", "No"),
    ("CUGUCCAAGACAUGUGAUCUGCACCUCUGAAGACAUGCUUAACCCUAAUUAUGAAGAUUUACUCAUUCGUAAGUCUAAUCAUAAUUUCUUGGUACAG", "TO-3-N3 (biotin conjugate)", "Yes"),
]

input: Check the entry AGGUCUCCUGGCAU [hsa-mir-4256] : does pull-down binding Z-score equal or exceed -0.4?
output: Yes

input: Check the entry GGCUGGGGUCACUGACUCUGCUUCCCCUGCC [hsa-mir-6799] : does pull-down binding Z-score equal or exceed -0.4?
output: Yes

Every entry's value here was drawn from the supplement of paper PMC11865577.
